Measured pH Range where Protein is >80% detected as Soluble and A650 <1 OD: Low, listed per entry.
Assay: pH solubility
Assay type: physicochemical
Details: lower pH
Description: pH Solubility. […] Protein was either lyophilized and then resuspended in buffer cocktail mixtures, or concentrated and then spiked into buffer cocktail mixtures at a final protein concentration of 5 to 30 mg/ml. […] Turbidity of proteins was determined by measuring the absorbance of protein solutions at 650 nm. […] The pH range over which select proteins remained greater than 80% soluble as determined by Bradford and the A650 value are listed in Table E31C.
Respond with the number and no other words.

>  <molecule>
SEQID-00622: protein of the 168 nutritive polypeptide library (protein, listed as Oryza sativa, source: /note="subsp. japonica", protein of the 168 nutritive polypeptide library) MASEGAVSPAFAYTVVYVKDVAKSAAFYSAAFGYTVRRLDQSHKWAELESGTTTIAFTPLHQRETDALTGAVQLPDSAGERGPVEICFDYADVDAAYRRAVDSGAVPVSPPEQKSWGQKVGYVRDIDGIIVRMGSHVRA

>  <numeric-result>
2.8

$$$$
>  <molecule>
SEQID-00269: nutritive polypeptide (protein) DLKKKLDDDLGTLENLEELKKKLLKDLELLSQRLEELALAYDKLEKTKTRLQQELDDLLLDLDHQ

>  <numeric-result>
7.2

$$$$
>  <molecule>
SEQID-00485: nutritive polypeptide naturally produced in Chickpea, recombinantly expressed in E. coli (protein, listed as Cicer arietinum) MTKTGYINAAFRSSRNNEAYLFINDKYVLLDYAPGTSNDKVLYGPSFVRDGYKSLAKTIFGTYGIDCSFDTEYNEAFIFYENFCARIDYAPHSDKDKIISGPKKIADMFPFFKGTVFENGIDAAFRSTKGKEVYLFKGDKYARIDYLTNRLVQNIKSISDGFPCLRGTIFEAGMDSAFASHKTNEAYLFKGEYYARINFTPGSTNDIMGGVKKTLDYWPSLRGIIPLE

>  <numeric-result>
4.6

$$$$

Lab note: measured pH Range where Protein is >80% detected as Soluble and A650 <1 OD: Low of SEQID-00511: protein of the 168 nutritive polypeptide library (protein, Arthrospira platensis C1, protein of the 168 nutritive polypeptide library) MVLFGFGKKKSLPKPEEALPGRDRVMSVPDRHYINGNPLKPPFPEGMEQAVFGLGCFWGAERKFWQQQGVFSTAVGYAGGYTKNPTYEEVCSGMTGHTEVVLVVFDPKVISYTDLLKLFWESHNPTQGMRQGNDTGTQYRSAIYTYSDEQQRLALASRDRYQQALSAASYGEITTEIAPAQEFYYAEAYHQQYLGKNPNGYCGLGGTGVGCPAMTETSV was 5.6

The molecule listed as SEQID-00502: protein of the 168 nutritive polypeptide library (protein, Glycine max, protein of the 168 nutritive polypeptide library) MASQSNTKSVHDFTVKDARGNNVNLADYKGKVLLIVNVASQCGLTNSNYTELNQLYEKYKGKGLEILAFPCNQFGAQEPGTNEEIVEFACTRFKAEFPIFDKVDVNGDNAAPLYKFLKSSKGGLFGDSIKWNFSKFLVDKDGNVVDRYAPTTSPLSIEKDIKKLLDA has a reported pH Range where Protein is >80% detected as Soluble and A650 <1 OD: Low of 7.1

Item: SEQID-00226: nutritive polypeptide (protein, listed as Bos taurus) QLQALQAQLTDTKKKVDDDLGTIENLEEAKKKLLKDVEVLSQRLEEKALAYDKLEKTKTRLQQELDDLLVDLDHQRQIVSNLEKKQKKFDQLLAEEKNIS | pH Range where Protein is >80% detected as Soluble and A650 <1 OD: Low: 2.6
